method-summary: Volume of distribution at steady state in male CD1 mouse at 1 mg/kg, iv compound dissolved in saline measured after 24 hrs by LC-MS/MS analysis
Assay type: ADME, organism-based
condition-info: in vivo, read-out: Vdss
measurement-name: Vd (L/kg)

{"columns": ["molecule", "assay-value"],
 "data": [
  ["CC(=O)Nc1ncc(CN2CCC3(CCN(c4cc(C)nc5ccccc45)C3)C2)s1 (single isomer, unassigned; (+))", 17.8]
]}

###

assayed-target: Protein O-GlcNAcase (Homo sapiens, UniProt O60502)
Sequence (O60502 whole entry, looked up, change not shown): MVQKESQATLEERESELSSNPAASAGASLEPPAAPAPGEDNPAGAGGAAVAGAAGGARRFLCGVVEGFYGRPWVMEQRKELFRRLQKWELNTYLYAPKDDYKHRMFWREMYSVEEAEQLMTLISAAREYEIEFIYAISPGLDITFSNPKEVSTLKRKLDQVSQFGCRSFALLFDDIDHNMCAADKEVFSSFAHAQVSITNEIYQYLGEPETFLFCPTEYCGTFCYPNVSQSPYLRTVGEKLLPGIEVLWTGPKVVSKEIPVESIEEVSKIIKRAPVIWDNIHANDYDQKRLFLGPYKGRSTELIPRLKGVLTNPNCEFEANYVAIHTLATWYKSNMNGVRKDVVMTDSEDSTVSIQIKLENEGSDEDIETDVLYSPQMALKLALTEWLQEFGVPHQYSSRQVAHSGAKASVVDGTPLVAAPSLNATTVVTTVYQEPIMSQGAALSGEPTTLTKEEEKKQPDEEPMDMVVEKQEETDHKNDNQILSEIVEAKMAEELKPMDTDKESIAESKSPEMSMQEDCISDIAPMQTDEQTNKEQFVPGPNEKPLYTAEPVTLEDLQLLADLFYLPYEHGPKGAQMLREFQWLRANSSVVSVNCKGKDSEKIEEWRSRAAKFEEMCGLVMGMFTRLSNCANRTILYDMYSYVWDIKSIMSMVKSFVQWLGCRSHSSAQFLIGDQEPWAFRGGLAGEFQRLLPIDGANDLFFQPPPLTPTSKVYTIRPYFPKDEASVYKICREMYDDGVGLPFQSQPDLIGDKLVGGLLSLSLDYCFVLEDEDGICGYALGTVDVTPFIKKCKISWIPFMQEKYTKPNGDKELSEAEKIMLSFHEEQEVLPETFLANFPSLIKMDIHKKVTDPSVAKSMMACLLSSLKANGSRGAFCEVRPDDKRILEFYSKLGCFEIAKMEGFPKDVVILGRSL
method-summary: Inhibition of OGA in HEK293 cells induced with human Tau […] mutant assessed as increase in O-GlcNAcylated protein levels measured after 6 hrs by Hoechst 33342 dye based fluorescence analysis
// boundary case: IC50 equal to 0.4 µM maps to not fulfilled; strictly smaller maps to fulfilled

{"columns": ["compound", "assayed-target", "assigned-category"],
 "data": [
  ["CC(=O)Nc1ncc(CN2CCC3(C2)CN(c2cc(C)nc4ncnn24)C3)s1", "Protein O-GlcNAcase (Homo sapiens, UniProt O60502)", "not fulfilled"],
  ["CC(=O)Nc1ncc(CN2CC[C@]3(C2)C[C@@H](Cc2cc(C)nc(C)c2)C3)s1", "Protein O-GlcNAcase (Homo sapiens, UniProt O60502)", "fulfilled"],
  ["CC(=O)Nc1ncc(CN2CCC3(CCN(c4cc(C)nc5ccccc45)C3)C2)s1 (racemic)", "Protein O-GlcNAcase (Homo sapiens, UniProt O60502)", "fulfilled"],
  ["COc1cc(N2CCC3(CCN(Cc4cnc(NC(C)=O)s4)C3)C2)cc(C)n1 (racemic)", "Protein O-GlcNAcase (Homo sapiens, UniProt O60502)", "fulfilled"],
  ["CC(=O)Nc1ncc(CN2CCC3(CCN(c4cc(C)nc5ccccc45)C3)C2)s1 (single isomer, unassigned; (-))", "Protein O-GlcNAcase (Homo sapiens, UniProt O60502)", "fulfilled"],
  ["CC(=O)Nc1ncc(CN2CCC3(CCN(c4cc(C)n5ccnc5n4)C3)C2)s1 (racemic)", "Protein O-GlcNAcase (Homo sapiens, UniProt O60502)", "not fulfilled"],
  ["CC(=O)Nc1ncc(CN2CCC3(CCC(Cc4cc(C)nc(C)c4)C3)C2)s1 (centres undefined)", "Protein O-GlcNAcase (Homo sapiens, UniProt O60502)", "not fulfilled"],
  ["CC(=O)Nc1ncc(CN2CCC3(CCC(c4cc(C)nc(C)c4)C3)C2)s1 (centres undefined)", "Protein O-GlcNAcase (Homo sapiens, UniProt O60502)", "fulfilled"],
  ["CC(=O)Nc1ncc(CN2CCC3(CCN(c4cc(C)nc(C(F)(F)F)c4)C3)C2)s1 (racemic)", "Protein O-GlcNAcase (Homo sapiens, UniProt O60502)", "fulfilled"]
]}

###

Test system: P-gp (MDR1)
method-summary: Efflux ratio of apparent permeability across basolateral to apical over apical to basolateral side in MDCK2-MDR1 cells at 5 uM measured after 120 mins in absence of P-gp inhibitor GF120918 by LC-MS/MS analysis
condition-info: dog, MDCK-MDR1
measurement-name: efflux ratio at 2 h, 5 µM

{"columns": ["compound", "assayed-target", "assay-value"],
 "data": [
  ["COc1cc(N2CCC3(CCN(Cc4cnc(NC(C)=O)s4)C3)C2)cc(C)n1 (racemic)", "P-gp (MDR1)", 27.7],
  ["CC(=O)Nc1ncc(CN2CCC3(CCN(c4cc(C)nc(C(F)(F)F)c4)C3)C2)s1 (racemic)", "P-gp (MDR1)", 32.2],
  ["CC(=O)Nc1ncc(CN2CCC3(CCN(c4cc(C)cc(C)n4)C3)C2)s1 (racemic)", "P-gp (MDR1)", 24.8],
  ["CC(=O)Nc1ncc(CN2CCC3(CCN(c4cc(C)nc(C)c4)C3)C2)s1 (racemic)", "P-gp (MDR1)", 1.6],
  ["CC(=O)Nc1ncc(CN2CCC3(CCN(c4cc(C)n5ccnc5n4)C3)C2)s1 (racemic)", "P-gp (MDR1)", 1.2],
  ["CC(=O)Nc1ncc(CN2CCC3(CCN(c4cc(C)nc5ncnn45)C3)C2)s1 (stereo unspecified)", "P-gp (MDR1)", 13.5]
]}
